B1: NCK2 (parent)
chain: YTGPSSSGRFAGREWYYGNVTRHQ

# Variants of: B1
# method_description: protein stability index of a GFP-peptide fusion (GPS, HEK-293T) (PSI 1-6); higher = more stable;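 also: lentivirally expressed fusions sorted by FACS into six bins by GFP to DsRed ratio, PSI derived from sequencing read proportions per bin multiplied by bin number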
# protocol_conditions: c terminus: a fixed tail appended
quantity: protein stability index
Give your answer as a number; write no unit.

Below: 10 variants and their reported protein stability index.
{"variant_label": "T2S", "protein stability index": 1.37}
{"variant_label": "N19D", "protein stability index": 1.76}
{"variant_label": "G3M", "protein stability index": 1.88}
{"variant_label": "S7P", "protein stability index": 2.18}
{"variant_label": "R13E", "protein stability index": 2}
{"variant_label": "Q24L", "protein stability index": 2.07}
{"variant_label": "R22D", "protein stability index": 1.65}
{"variant_label": "E14A", "protein stability index": 1.57}
{"variant_label": "G8H", "protein stability index": 1.51}
{"variant_label": "S7A", "protein stability index": 1.71}

Record G18P , field protein stability index: 1.89
